- Species on record: Homo sapiens
- assay-protocol: Selectivity ratio of Ki for trypsin (unknown origin) to Ki for thrombin (unknown origin)
property: Ratio Ki

Guide cases for Ratio Ki, answers given:
[
  {
    "entry-smiles": "CCOC(=O)C(=O)N(Cc1ccccc1)c1ccc2c(c1)O[C@@H](COc1ccc(C(=N)N)cc1)CO2.O=C(O)C(F)(F)F",
    "Ratio Ki": 2.71
  },
  {
    "entry-smiles": "N=C(N)c1ccc(OC[C@H]2COc3cc(N(Cc4ccccc4)C(=O)C(=O)O)ccc3O2)cc1",
    "Ratio Ki": 0.28
  },
  {
    "entry-smiles": "N=C(N)c1ccc(OC[C@@H]2COc3cc(N(Cc4ccccc4)C(=O)C(=O)O)ccc3O2)cc1",
    "Ratio Ki": 0.3
  },
  {
    "entry-smiles": "CCOC(=O)C(=O)N(Cc1ccccc1)c1ccc2c(c1)OC[C@H](COc1ccc(C(=N)N)cc1)O2.O=C(O)C(F)(F)F",
    "Ratio Ki": 0.65
  },
  {
    "entry-smiles": "N=C(N)c1ccc(OC[C@@H]2COc3ccc(N(Cc4ccccc4)C(=O)C(=O)O)cc3O2)cc1",
    "Ratio Ki": 0.51
  },
  {
    "entry-smiles": "N=C(N)c1ccc(OC[C@H]2COc3ccc(N(Cc4ccccc4)C(=O)C(=O)O)cc3O2)cc1",
    "Ratio Ki": 1
  }
]

A. CCOC(=O)C(=O)N(Cc1ccccc1)c1ccc2c(c1)O[C@H](COc1ccc(C(=N)N)cc1)CO2.O=C(O)C(F)(F)F
B. CCOC(=O)C(=O)N(Cc1ccccc1)c1ccc2c(c1)OC[C@@H](COc1ccc(C(=N)N)cc1)O2.O=C(O)C(F)(F)F
Challenge: When their Ratio Ki values are compared, which is larger, A or B ? Record your answer as the label of the chosen record.
Response given: A
(A: 1.32, B: 0.39)

---

- target-of-assay: Trypsin (Homo sapiens, UniProt P07477+P07478+P35030)
- assay-protocol: Inhibition of trypsin (unknown origin) using S-2222 as substrate preincubated with enzyme for 15 mins prior to substrate addition measured every 10 s by amidolytic method
- Type: protein assay
property: Ki (nM)

[
  {
    "entry-smiles": "N=C(N)c1ccc(OC[C@@H]2COc3cc(N(Cc4ccccc4)C(=O)C(=O)O)ccc3O2)cc1",
    "target-of-assay": "Trypsin (Homo sapiens, UniProt P07477+P07478+P35030)",
    "scale-unit": "nM",
    "Ki": 1550
  },
  {
    "entry-smiles": "CCOC(=O)C(=O)N(Cc1ccccc1)c1ccc2c(c1)O[C@H](COc1ccc(C(=N)N)cc1)CO2.O=C(O)C(F)(F)F",
    "target-of-assay": "Trypsin (Homo sapiens, UniProt P07477+P07478+P35030)",
    "scale-unit": "nM",
    "Ki": 894
  },
  {
    "entry-smiles": "N=C(N)c1ccc(OC[C@H]2COc3ccc(N(Cc4ccccc4)C(=O)C(=O)O)cc3O2)cc1",
    "target-of-assay": "Trypsin (Homo sapiens, UniProt P07477+P07478+P35030)",
    "scale-unit": "nM",
    "Ki": 267
  },
  {
    "entry-smiles": "CCOC(=O)C(=O)N(Cc1ccccc1)c1ccc2c(c1)OC[C@H](COc1ccc(C(=N)N)cc1)O2.O=C(O)C(F)(F)F",
    "target-of-assay": "Trypsin (Homo sapiens, UniProt P07477+P07478+P35030)",
    "scale-unit": "nM",
    "Ki": 283
  },
  {
    "entry-smiles": "CCOC(=O)C(=O)N(Cc1ccccc1)c1ccc2c(c1)OC[C@@H](COc1ccc(C(=N)N)cc1)O2.O=C(O)C(F)(F)F",
    "target-of-assay": "Trypsin (Homo sapiens, UniProt P07477+P07478+P35030)",
    "scale-unit": "nM",
    "Ki": 644
  }
]

P. N=C(N)c1ccc(OC[C@H]2COc3cc(N(Cc4ccccc4)C(=O)C(=O)O)ccc3O2)cc1
Q. N=C(N)c1ccc(OC[C@@H]2COc3ccc(N(Cc4ccccc4)C(=O)C(=O)O)cc3O2)cc1
Challenge: Name the one with the greater Ki value, either P or Q as given. Mark your selection by writing its label.
Response given: Q
(Q: 1370 nM, P: 463 nM)
